tested on: M14 melanoma; test: NCI tumour cell line growth inhibition, 48 h
measured_endpoint: TGI

compound="CC[C@@]1(O)CC(OC2CC(N3CCOCC3)C(O)C(C)O2)c2c(O)c3c(c(O)c2[C@H]1O)C(=O)c1cccc(O)c1C3=O (stereo partly drawn)" system_tested="M14 melanoma" measured_endpoint=TGI result="1.51 µM"
compound=Cc1cccc(N=Nc2c(C)nn(C(=O)CC(=O)Nc3ccc(Cl)cc3)c2C)c1 system_tested="M14 melanoma" measured_endpoint=TGI result="> 100 µM"
compound=Nc1nc(-c2cccnc2)cc(-c2cc(-c3cccnc3)nc(N)n2)n1 system_tested="M14 melanoma" measured_endpoint=TGI result="> 100 µM"
compound=O/N=C1/CCCC/C1=C\c1ccc(Cl)c(Cl)c1 system_tested="M14 melanoma" measured_endpoint=TGI result="82.9 µM"
compound=C[C@]12CC[C@H]3[C@@H](CC=C4C[C@@H](O)CC[C@@]43C)[C@@H]1C/C(=C\c1ccncc1)[C@@H]2O system_tested="M14 melanoma" measured_endpoint=TGI result="40.6 µM"
compound="CC(NNC(=O)c1ccncc1)c1ccccc1 (stereo not drawn)" system_tested="M14 melanoma" measured_endpoint=TGI result="> 100 µM"
compound=CCOC(=O)C(=[N+]=[N-])C(=O)CSC#N system_tested="M14 melanoma" measured_endpoint=TGI result="> 100 µM"
compound="O=S(Cc1ccccc1)c1ccccc1Cn1cccc1 (stereo not drawn)" system_tested="M14 melanoma" measured_endpoint=TGI result="> 100 µM"

Form: compound = COc1cccc(/C=N\NC(=O)c2ccncc2)c1O ; TGI = > 100 µM

Form: compound = NC(=O)c1cn(C2CC(O)C(CO)O2)c2ncnc(N)c12 (stereo not drawn) ; TGI = 22.6 µM

Form: compound = O=C1C(Cl)C(c2ccccc2Cl)N1n1cnc2ccccc2c1=O (stereo not drawn) ; TGI = > 100 µM

Form: compound = COc1cccc(/C=C2\CCC(CN(C)C)C2=O)c1 (stereo not drawn) ; TGI = 9.62 µM

Form: compound = COc1cc(CSc2nc3ccc(Cl)cc3c(=O)n2Cc2ccccc2)cc(OC)c1OC ; TGI = > 100 µM

Form: compound = NC1=NN(c2ccccc2)C(=O)C1C(=O)C(=O)Nc1ccccc1 (stereo not drawn) ; TGI = > 100 µM

* * *

test system: NCI/ADR-RES ovarian; experiment: NCI tumour cell line growth inhibition, 48 h
measured_endpoint: GI50

compound=Oc1nc(N2CCOCC2)sc1/C=C1\C=Nc2ccccc21 system_tested="NCI/ADR-RES ovarian" result="> 100 µM"
compound="CC(C)[C@@]12C[C@@H](OC(=O)C3CO3)[C@@](C)(O1)[C@@H]1CC[C@@H](C)[C@H]1[C@@H]2OC(=O)/C=C/c1ccccc1 (stereo partly drawn)" system_tested="NCI/ADR-RES ovarian" result="10.8 µM"
compound=O=Cc1ccc(-c2ccc(-c3nc4ccccc4s3)cc2)o1 system_tested="NCI/ADR-RES ovarian" result="97.7 µM"
compound=CC(C)CCN(CCC(C)C)CC(=O)Nc1ccc(S(=O)(=O)c2ccc(NC(=O)CN(CCC(C)C)CCC(C)C)cc2)cc1 system_tested="NCI/ADR-RES ovarian" result="2.93 µM"
compound=O=S(O)O.O=S(O)O.[Co].[NH2-].[NH2-].[NH2-].[NH2-] system_tested="NCI/ADR-RES ovarian" result="> 100 µM"

Reading of GI50 for Nc1nc(Sc2ccc([N+](=O)[O-])c3nonc23)c2ncn(C3OC(CO)C(O)C3O)c2n1 (stereo not drawn) with NCI/ADR-RES ovarian: 0.47 µM

Reading of GI50 for CCCN(CCC)c1ccc(/C=N/NC(=O)c2cccnc2)c(C)c1 with NCI/ADR-RES ovarian: 15.2 µM

Reading of GI50 for CC[C@]12CN3CCc4c([nH]c5ccccc45)[C@@](C(=O)OC)(c4cc5c(cc4OC)N(C)[C@H]4[C@@](O)(C(=O)OC)[C@H](OC(C)=O)[C@]6(CC)C=CCN7CC[C@]54[C@@H]76)CC(C3)[C@H]1O2 (stereo partly drawn) with NCI/ADR-RES ovarian: 11.6 µM
